Assay: wn = mass fraction of the nth substance listed
Settings: 328.15 K; 101 kPa; Liquid; Concentric cylinders viscometry; w1 = 0.1
# Lookup of reported viscosity keyed by entry
Numbers only here, please. The scale is mPa·s.

Consider the worked cases shown below.
OCCNCCO [diethanolamine] + O | 0.6969
CC(O)CN(CC(C)O)CC(C)O (centres undefined) [triisopropanolamine] + O | 0.7208

[in] What viscosity value was documented for this compound, CC(O)CNCC(C)O (centres undefined) [N-(2-hydroxypropyl)-2-hydroxy-1-propanamine] + O ?
[out] 0.7357

[in] Form field: reported viscosity of CC(O)CN (centres undefined) [1-amino-2-propanol] + O
[out] 0.6988
